assay.method.text: yeast display, Sf9 membrane polyspecificity reagent, FACS + sequencing; frameworks hold sequencing errors
quantity: polyreactivity (PSR sort gate)

QVQLVESGGGLVQAGGSLRLSCDASGSIFNRNVMGWYRQAHGKERELVAVITGSGDSTFYADSVKGRFTISRDNAKNTVYLQRNSLIPDDTAVYYCNARLVSGGYYYWGLGTQVTVSS	low polyreactivity
QVQLVESGGGLVHAGGSLRLSCAASGRTFCGYAMGRYRHAPGKERELVATNSYSSGSTYYADSVKGRFTISRDNAMNTVYLQMNSLTPEDTAVYYCAARIRYFYRYDYWGQGTQVTVSS	high polyreactivity
QVQLVESGGGLVQAGGSLRLSCAASGSTFSNYAMGWYRQAPGKERELVAGIDWSGGSTYYADSVKGRFTISRDNAKNTVYLQMNSLKPEDTAVYYCAKRVWYHGRKLRGYYWGQGTQVTVSS	low polyreactivity
QVQLVESGGGLVQAGGSLRLSCAASGSTRRDYVMGWYRQAPGKERELVAAITSRVDDTYYADSVKGRFTISRDNAKNTVYLQLNSLKPEDTAVYYCAADYSVTLRIGGYYWFYAFDYWGQGTQLTVSS	low polyreactivity
QVQLVESGGGLVQAGGSLRISCASSGSIFVINAMGWYRQAPGKERELVAAIDWGGDTTYYADSVKGRFTISRDNAKITVYLQMNSLKPEDTAVYYCAADLFLWYEFEYWGQGTQVTVSS	high polyreactivity
QVQLVESGGGLVQAGGSLRLSCAASGSTFGGYAMGWYRPAPGKERELVAAISGSGVRTYYADSVKGRFTISRDNAKNTVYLQMNSLKPEDTAVYYCAKRVRYPGDRYYYWGQGTQVTVSS	high polyreactivity
QVQLVESGGGLVQAGGSLRLSCAASGRIFGVYAMGWYRPAPGKERELVAAITRGASTYYADSVKGRFTISRDNAKNTVYLQMNSLKPEDTAVYYCAAVVSGRYWGYYSWGQGTQVTVSS	high polyreactivity
QVQLVESGGGLVQAGGSLRLSCAASGLTLYTYAMGWYREAPGKESELVAAISKNGGRTYYADSVKGRFTISRDNAKNTVYLQMNSLKPEDTAVYYCAARARVGTVTFDFWGQGTQVTVSS	high polyreactivity
QVQLVESGGGLVQAGGSLRLSCAASGITFRVYVMGWYRQAPGKERELVAAITSGTSTYYADSVKGRITISRDNAKNTVYLQMNRLKPEDTAVYYCAALIFYGDYIEYDYWGQGTQVTVSS	low polyreactivity
QVQLVESGGGLVQAGGSLRLSCAASGITFDENTMGWYRQAPGKERELVAAITEIGGSTYYADSVKGRFTISRDNAKNTVYLQMNSLKPEDTAVYYCNAARWVVRFVDYEYWGQGTQVTVSS	low polyreactivity

In: Answer with the recorded polyreactivity (PSR sort gate) for the sequence listed here: KVNIEESGGGLVQAGGSLRLSCAAYGSIFRYYAMGRYRQATGKERELVASISSSGGSTYYADSEKGRFTISRDNAKNTVYLQMNSLKPEDTAVYYCAAVRHRNYGYWGQGTQVTVSS
Out: high polyreactivity

In: Answer with the recorded polyreactivity (PSR sort gate) for the sequence listed here: QVQLVESGGGLVQAGGSLRLSCAASGSTFSKNGMGWYRQAPGKERELVAAITVNGGSTSYADSVKGRFTISRDNAKNTVYLQMNSLKPEDTAVYYCARRRYSKYYYWGQGTQVTVSS
Out: high polyreactivity

In: Answer with the recorded polyreactivity (PSR sort gate) for the sequence listed here: QVQLVESGGGLVQAGGSLRLSCAASGRIFYSYAMGWYREAPGKERELVAAIDESDGSTYYADSVKGRFTISRDNAKNTVYLQMNSLKQEDTADYYCNADLTLGGEFDYWGHGTQVTVSS
Out: low polyreactivity

In: Answer with the recorded polyreactivity (PSR sort gate) for the sequence listed here: QGQLVESGGGLVQAGGSLRLSCAASGFIFDNNAMGWYRQAPGKERELVAAISFSAGSTYYADSVKGRFTISRDNAKNTVYLQMNSLNPEDTAVYYCNADDWWGGYDYWGQGTQVTVSS
Out: low polyreactivity
